Assay: 384-well plate pilot, post-Golgi transport modulator project, inhibition of yeast transport mutant growth (AID 636)
Conditions: absorbance 615 nm, about 18 h, hits give high values
MEASURED_QUANTITY: inhibition (%)
Dear colleague, please return just the value in %, with no unit written.

Return value of inhibition for input CC1CCCCC1NC(=O)CN1CCN(Cc2ccccc2Cl)C1=O (stereo unspecified) , no commentary.
-4.68

Return value of inhibition for input `Cc1c(NC(=O)CN2c3cccc4cccc(c34)S2(=O)=O)c(=O)n(-c2ccccc2)n1C` , no commentary.
-4.27

Return value of inhibition for input `COC(=O)Nc1ccc(NC(C)=O)cc1` , no commentary.
5.84

Return value of inhibition for input `CCOC(=O)N1CCN(C(=O)CCc2c(C)nc3c(c(C)nn3-c3ccc(C)c(C)c3)c2C)CC1` , no commentary.
-1.71

Return value of inhibition for input `CCCn1c(-c2ccc(F)cc2)cnc1SCC(=O)O` , no commentary.
-3.33

Return value of inhibition for input `COc1ccc(NS(=O)(=O)c2c(C)[nH]c(=O)[nH]c2=O)c(OC)c1` , no commentary.
-0.39

* * *

Experiment: growth suppression of PTEN-deleted HCT116, pilot screen, cell-based, HCT116 clonal line, CellTiter-Glo (AID 824);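 note: 0% = 20 µM Hyamine control and 100% = vehicle cell control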
Conditions: 60 h, at 10 µM, hits give low values
Inconclusive results are not listed.
MEASURED_QUANTITY: viability (%)
Dear colleague, please return just the value in %, with no unit written.

Return value of viability for input `O=C(O)CCC(=O)CCC(=O)c1ccc(Cl)cc1` , no commentary.
94.3

Return value of viability for input `COC(=O)c1ccc2c(c1)N(C)CCS2` , no commentary.
93.9

Return value of viability for input COC(=O)c1ccc(N2C(=O)CC(Sc3n[nH]c(C)n3)C2=O)cc1 (stereo unspecified) , no commentary.
93.2

Return value of viability for input `CC(=O)C1=C(C)Nc2cc(C(F)(F)F)ccc2S1` , no commentary.
85.7

Return value of viability for input `COc1ccc(OC)c2c(C)cc(N3CCCN(C)CC3)nc12` , no commentary.
85.9

Return value of viability for input COc1cc(C2NC(=O)NC(C)=C2C(=O)OC2CCCCC2)cc(Br)c1O (stereo unspecified) , no commentary.
77.3

Return value of viability for input `COc1ccccc1NC(=O)Cn1cnc2c(oc3ccccc32)c1=O` , no commentary.
100

Return value of viability for input `O=C(Nc1ccc(S(=O)(=O)N2CCOCC2)cc1)c1ccc(Cl)cc1` , no commentary.
80.2

Return value of viability for input `CCOc1ccc(NC(=O)c2ccc(N)cc2)cc1` , no commentary.
89.2

Return value of viability for input `CCOc1ccc(-n2c(SCc3ccc(C(=O)OC)o3)nc3c(c2=O)SCC3)cc1` , no commentary.
72.7

Return value of viability for input `c1coc(Cn2c(SCc3nc4ccccc4[nH]3)nnc2-c2cccs2)c1` , no commentary.
89.8

* * *

Assay: growth suppression of beta-catenin knockout HCT116, pilot screen, human colon tumor cells (AID 823);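 note: 0% = wells killed by 20 µM Hyamine and 100% = untreated DMSO cell wells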
Conditions: CellTiter-Glo, 60 h, at 10 µM, hits give low values
Records with an inconclusive call do not appear.
MEASURED_QUANTITY: viability (%)
Dear colleague, please return just the value in %, with no unit written.

Return value of viability for input CCCC(=O)C1=C(O)C(C(=O)OC)C(C)(C)CC1=N (stereo unspecified) , no commentary.
100

Return value of viability for input `CCCCCn1c(=O)[nH]c2cc(C(=O)NCc3ccc4c(c3)OCO4)ccc2c1=O` , no commentary.
71.2

Return value of viability for input `Nn1c(SCC(=O)NC2CCCCC2)nnc1-c1ccccc1` , no commentary.
98.8

Return value of viability for input `CCOc1cc(/C=N/n2cnnc2)ccc1OCC(=O)Nc1ccccc1OC` , no commentary.
101

Return value of viability for input `COc1ccc(N(CC(=O)NC2CCCCC2)S(=O)(=O)c2cccnc2)cc1` , no commentary.
99.6

Return value of viability for input `Cc1cc(=O)oc2cc3c(cc12)OCCN3` , no commentary.
93

Return value of viability for input `C=CCSc1nc2c(cnn2-c2ccc(C)c(C)c2)c(=O)[nH]1` , no commentary.
93.3

Return value of viability for input `CCOC(=O)N1CCc2c(sc(NC(=O)c3ccc(S(=O)(=O)N4CCCC4)cc3)c2C#N)C1` , no commentary.
99.1

Return value of viability for input `O=C(Nc1ccc(Br)cc1)c1cnccn1` , no commentary.
98.1

Return value of viability for input `Cc1cc2ccccc2n1CCNC(=O)COc1ccccc1` , no commentary.
99.2

Return value of viability for input `COc1cc(OC)cc(C(=O)Nc2cc(NC(=O)c3ccco3)ccc2OC)c1` , no commentary.
88.8
